# test.summary: Half life in in vitro PK/PD model at 2 g infused thrice daily at 8 hrs interval
# Assay type: ADME
# condition.summary: iv
measurement.name: half-life

>>> recorded_measurement("CC(C)(O/N=C(\\C(=O)N[C@@H]1C(=O)N2C(C(=O)[O-])=C(C[n+]3ccccc3)CS[C@H]12)c1csc(N)n1)C(=O)O")
"1.96 h"

----------
# test.summary: Half life in in vitro PK/PD model at 1 g infused thrice daily at 8 hrs interval
# Type: ADME
# condition.summary: iv
measurement.name: half-life (min)

>>> recorded_measurement("C[C@@H](O)[C@H]1C(=O)N2C(C(=O)O)=C(S[C@@H]3CN[C@H](C(=O)N(C)C)C3)[C@H](C)[C@H]12 [MEROPENEM]")
27
